# System: HeLa
# Assay protocol: Antiproliferative activity against human HeLa cells assessed as […] cell proliferation at 10 uM incubated for 48 hrs by WST-1 assay relative to control
# Type: functional
The following molecules are shown together with reported Activity values.
Answer as a quantity: numeral, then unit.

Param item = CC(C)S(=O)(=O)c1ccc(-c2cnc3[nH]nc(C(=O)NCc4ccccc4)c3c2)cc1 ; retrieve measured Activity.
90%

Param item = CS(=O)(=O)c1ccc(-c2cnc3[nH]nc(C(=O)N4CCC(c5ccccc5)CC4)c3c2)cc1 ; retrieve measured Activity.
92%

Param item = CS(=O)(=O)c1ccc(-c2cnc3[nH]cc(C(=O)NCc4ccccc4)c3c2)cc1 ; retrieve measured Activity.
89%

Param item = CC(C)S(=O)(=O)c1ccc(-c2cnc3[nH]c(C(=O)N4CCC(c5ccccc5)CC4)cc3c2)cc1 ; retrieve measured Activity.
92%

Please look at the following molecule next.
Param item = CCN1CCN(C(=O)c2cc3cc(-c4ccc(S(C)(=O)=O)cc4)cnc3[nH]2)CC1 ; retrieve measured Activity.
90%
